- Study System: Caspase-7 (Homo sapiens, UniProt P55210)
- Method Description: Inhibition of recombinant human caspase-7 activity using Ac-DEVD-AMC as substrate preincubated for 10 mins by fluorescence assay
Observation Type: pIC50
FYI, pIC50 means -log10 of a concentration in mol per litre.

Look over these answered cases.
>  <Substance Smiles>
COc1ccccc1CCC(=O)n1sc2ccccc2c1=O

>  <pIC50>
7.20

$$$$
>  <Substance Smiles>
Cc1ccc(CCCC(=O)n2sc3ccccc3c2=O)cc1

>  <pIC50>
7.01

$$$$
>  <Substance Smiles>
COc1ccc(CC(=O)n2sc3ccccc3c2=O)cc1

>  <pIC50>
6.67

$$$$

Task: Which pIC50 value is on record for O=C(Cc1ccc(-c2ccccc2)cc1)n1sc2ccccc2c1=O ?
Result: 6.94

Task: Which pIC50 value is on record for Cc1cccc(CCC(=O)n2sc3ccccc3c2=O)c1 ?
Result: 6.96

Task: Which pIC50 value is on record for O=C(CCc1ccc(F)cc1)n1sc2ccccc2c1=O ?
Result: 7.22

Task: Which pIC50 value is on record for O=C(Cc1ccccc1Cl)n1sc2ccccc2c1=O ?
Result: 6.84

Task: Which pIC50 value is on record for O=C(CCCc1ccccc1)n1sc2ccccc2c1=O ?
Result: 6.78

Task: Which pIC50 value is on record for COc1cccc(CCC(=O)n2sc3ccccc3c2=O)c1 ?
Result: 7.27

Task: Which pIC50 value is on record for O=C(CCCc1cccs1)n1sc2ccccc2c1=O ?
Result: 6.94

Task: Which pIC50 value is on record for O=C(CCC(=O)n1sc2ccccc2c1=O)c1cccs1 ?
Result: 7.25

Task: Which pIC50 value is on record for O=C(Cc1ccc(F)cc1)n1sc2ccccc2c1=O ?
Result: 6.22

Task: Which pIC50 value is on record for COc1ccc(CCCC(=O)n2sc3ccccc3c2=O)cc1 ?
Result: 7.13

Task: Which pIC50 value is on record for O=C(CCc1cccc(F)c1)n1sc2ccccc2c1=O ?
Result: 7.11

Task: Which pIC50 value is on record for O=C(Cc1cccc(F)c1)n1sc2ccccc2c1=O ?
Result: 6.34

Task: Which pIC50 value is on record for O=C(Cc1ccc(Cl)cc1)n1sc2ccccc2c1=O ?
Result: 6.23

Task: Which pIC50 value is on record for O=C(Cc1ccccc1)n1sc2ccccc2c1=O ?
Result: 6.57

Task: Which pIC50 value is on record for Cc1ccc(CCC(=O)n2sc3ccccc3c2=O)cc1 ?
Result: 7.14

Task: Which pIC50 value is on record for O=C(Cc1ccc2ccccc2c1)n1sc2ccccc2c1=O ?
Result: 6.53

Task: Which pIC50 value is on record for O=C(CCc1ccccc1)n1sc2ccccc2c1=O ?
Result: 6.95

* * *

- Study System: Caspase-3 (Homo sapiens, UniProt P42574)
- Sequence (P42574 29-175 limits assumed): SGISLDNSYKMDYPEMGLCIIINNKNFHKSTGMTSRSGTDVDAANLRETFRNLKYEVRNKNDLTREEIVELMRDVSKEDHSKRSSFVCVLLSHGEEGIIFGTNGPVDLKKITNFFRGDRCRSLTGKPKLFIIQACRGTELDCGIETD
- Sequence (P42574 176-277 limits assumed): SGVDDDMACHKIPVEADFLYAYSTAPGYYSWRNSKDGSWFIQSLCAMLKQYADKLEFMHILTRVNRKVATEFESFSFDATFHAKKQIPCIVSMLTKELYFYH
- Method Description: Inhibition of recombinant human caspase-3 activity using Ac-DEVD-AMC as substrate preincubated for 10 mins by fluorescence assay
Observation Type: IC50 (nM)
Field: numeric (nM). Do not append units.

Look over these answered cases.
>  <Substance Smiles>
O=C(CCc1ccccc1)n1sc2ccccc2c1=O

>  <Unit Info>
nM

>  <IC50>
108

$$$$
>  <Substance Smiles>
O=C(Cc1cccs1)n1sc2ccccc2c1=O

>  <Unit Info>
nM

>  <IC50>
32200

$$$$
>  <Substance Smiles>
O=C(Cc1ccccc1)n1sc2ccccc2c1=O

>  <Unit Info>
nM

>  <IC50>
292

$$$$

Task: Which IC50 value is on record for Cc1ccc(CCC(=O)n2sc3ccccc3c2=O)cc1 ?
Result: 119

* * *

- Study System: Caspase-3 (Homo sapiens, UniProt P42574)
- Method Description: Inhibition of recombinant human caspase-3 activity using Ac-DEVD-AMC as substrate preincubated for 10 mins by fluorescence assay
IC50 by entry:
Field: numeric (nM). Do not append units.

Look over these answered cases.
>  <Substance Smiles>
Cc1cccc(CC(=O)n2sc3ccccc3c2=O)c1

>  <Reported Measurement>
339

$$$$
>  <Substance Smiles>
COc1ccccc1CC(=O)n1sc2ccccc2c1=O

>  <Reported Measurement>
219

$$$$
>  <Substance Smiles>
O=C(Cc1ccc2c(c1)CCO2)n1sc2ccccc2c1=O

>  <Reported Measurement>
222

$$$$

Task: Which IC50 value is on record for O=C(CCc1ccccc1Cl)n1sc2ccccc2c1=O ?
Result: 47.3

Task: Which IC50 value is on record for O=C(Cc1ccccc1Cl)n1sc2ccccc2c1=O ?
Result: 193

Task: Which IC50 value is on record for O=C(CCc1cccc(F)c1)n1sc2ccccc2c1=O ?
Result: 87.7

Task: Which IC50 value is on record for COc1ccc(CCCC(=O)n2sc3ccccc3c2=O)cc1 ?
Result: 390

* * *

- Study System: Caspase-3 (Homo sapiens, UniProt P42574)
- Method Description: Inhibition of recombinant human caspase-3 activity using Ac-DEVD-AMC as substrate preincubated for 10 mins by fluorescence assay
pIC50: −log10 of the molar value.
Returns one of condition met or condition not met; condition met when pIC50 is >= 7.

Task: Determine whether measured pIC50 meets or exceeds 7 for Cc1ccc(CCCC(=O)n2sc3ccccc3c2=O)cc1
Result: condition not met

Task: Determine whether measured pIC50 meets or exceeds 7 for O=C(Cc1ccc(Cl)cc1)n1sc2ccccc2c1=O
Result: condition not met

Task: Determine whether measured pIC50 meets or exceeds 7 for O=C(Cc1ccccc1F)n1sc2ccccc2c1=O
Result: condition not met

* * *

- Study System: Caspase-7 (Homo sapiens)
- Method Description: Inhibition of recombinant human caspase-7 activity using Ac-DEVD-AMC as substrate preincubated for 10 mins by fluorescence assay
IC50 by entry:
Please state the number and follow it with the unit.

Look over these answered cases.
>  <Substance Smiles>
COc1cccc(CC(=O)n2sc3ccccc3c2=O)c1

>  <Study System>
Caspase-7 (Homo sapiens)

>  <Reported Measurement>
211 nM

$$$$
>  <Substance Smiles>
O=C(CCc1ccccc1Cl)n1sc2ccccc2c1=O

>  <Study System>
Caspase-7 (Homo sapiens)

>  <Reported Measurement>
158 nM

$$$$
>  <Substance Smiles>
O=C(CCCCc1ccccc1)n1sc2ccccc2c1=O

>  <Study System>
Caspase-7 (Homo sapiens)

>  <Reported Measurement>
101 nM

$$$$
>  <Substance Smiles>
O=C(Cc1ccc(O)cc1)n1sc2ccccc2c1=O

>  <Study System>
Caspase-7 (Homo sapiens)

>  <Reported Measurement>
330 nM

$$$$
>  <Substance Smiles>
O=C(CCc1ccccc1F)n1sc2ccccc2c1=O

>  <Study System>
Caspase-7 (Homo sapiens)

>  <Reported Measurement>
86.9 nM

$$$$

Task: Which IC50 value is on record for Cc1ccccc1CC(=O)n1sc2ccccc2c1=O ?
Result: 370 nM

Task: Which IC50 value is on record for O=C(Cc1cccc(Cl)c1)n1sc2ccccc2c1=O ?
Result: 607 nM

Task: Which IC50 value is on record for O=C(Cc1cccs1)n1sc2ccccc2c1=O ?
Result: 18100 nM

Task: Which IC50 value is on record for COc1ccc(CCC(=O)n2sc3ccccc3c2=O)cc1 ?
Result: 51.9 nM

Task: Which IC50 value is on record for Cc1ccc(CC(=O)n2sc3ccccc3c2=O)cc1 ?
Result: 182 nM

Task: Which IC50 value is on record for COc1ccccc1CC(=O)n1sc2ccccc2c1=O ?
Result: 207 nM

Task: Which IC50 value is on record for O=C(Cc1ccccc1F)n1sc2ccccc2c1=O ?
Result: 123 nM

Task: Which IC50 value is on record for O=C(Cc1ccc2c(c1)CCO2)n1sc2ccccc2c1=O ?
Result: 185 nM

* * *

- Study System: Caspase-7 (Homo sapiens)
- Sequence (P55210 whole entry): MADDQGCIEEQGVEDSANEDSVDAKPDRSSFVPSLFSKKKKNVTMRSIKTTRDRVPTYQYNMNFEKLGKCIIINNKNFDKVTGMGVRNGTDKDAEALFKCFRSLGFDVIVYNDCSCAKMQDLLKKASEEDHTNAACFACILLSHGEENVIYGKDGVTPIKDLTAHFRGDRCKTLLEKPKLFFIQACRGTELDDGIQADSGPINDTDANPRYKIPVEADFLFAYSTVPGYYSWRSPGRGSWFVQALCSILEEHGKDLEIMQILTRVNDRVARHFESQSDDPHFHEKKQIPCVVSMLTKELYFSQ
- Method Description: Inhibition of recombinant human caspase-7 activity using Ac-DEVD-AMC as substrate preincubated for 10 mins by fluorescence assay
pIC50 by entry:
FYI, pIC50 means -log10 of a concentration in mol per litre.

Look over these answered cases.
>  <Substance Smiles>
CC(=O)N[C@@H](CC(=O)O)C(=O)N[C@@H](CCC(=O)O)C(=O)N[C@H](C(=O)N[C@H](C=O)CC(=O)O)C(C)C

>  <Study System>
Caspase-7 (Homo sapiens)

>  <Reported Measurement>
6.81

$$$$
>  <Substance Smiles>
O=C(Nc1ccc(N2CCOCC2)cc1)n1sc2ccccc2c1=O

>  <Study System>
Caspase-7 (Homo sapiens)

>  <Reported Measurement>
6.79

$$$$
>  <Substance Smiles>
O=C(CCc1ccc(Cl)cc1)n1sc2ccccc2c1=O

>  <Study System>
Caspase-7 (Homo sapiens)

>  <Reported Measurement>
7.14

$$$$
>  <Substance Smiles>
Cc1cccc(CC(=O)n2sc3ccccc3c2=O)c1

>  <Study System>
Caspase-7 (Homo sapiens)

>  <Reported Measurement>
6.74

$$$$

Turning now to a further record.
Task: Which pIC50 value is on record for O=C(Cc1ccc(Cl)c(Cl)c1)n1sc2ccccc2c1=O ?
Result: 6.70
